system tested: T1, human IL-36R on cells (human, UniProt Q9HB29 20-575)
T1 sequence (looked up): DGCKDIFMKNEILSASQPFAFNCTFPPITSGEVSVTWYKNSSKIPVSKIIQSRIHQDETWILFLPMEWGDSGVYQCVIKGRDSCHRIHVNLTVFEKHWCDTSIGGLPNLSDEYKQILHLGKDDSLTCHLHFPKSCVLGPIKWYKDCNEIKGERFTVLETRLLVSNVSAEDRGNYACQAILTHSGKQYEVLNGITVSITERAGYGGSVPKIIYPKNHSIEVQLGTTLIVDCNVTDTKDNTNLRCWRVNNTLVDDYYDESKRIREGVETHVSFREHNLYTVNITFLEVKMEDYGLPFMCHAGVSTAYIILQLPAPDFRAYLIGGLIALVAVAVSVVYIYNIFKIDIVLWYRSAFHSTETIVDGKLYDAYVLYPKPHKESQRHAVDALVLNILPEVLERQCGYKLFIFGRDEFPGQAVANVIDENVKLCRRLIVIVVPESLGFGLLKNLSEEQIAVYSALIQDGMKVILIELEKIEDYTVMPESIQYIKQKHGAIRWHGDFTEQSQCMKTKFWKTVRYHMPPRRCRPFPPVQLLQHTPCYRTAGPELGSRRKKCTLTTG
assay details: cell-based or functional assay
measured attribute: IC90, IL-8 release, NCI/ADR-RES cells, trun-IL-36b (nM)
Expressed in nM, but write only the number.

antibody 81B4 (antibody, V domains shown, Mouse monoclonal from hybridoma; also called 81B4E11; Mouse 81B4) VH: QVQLQQPGADFVRPGASMRLSCKASGYSFTSSWIHWVKQRPGQGLEWIGEINPGNVRTNYNENFRNKATLTVDKSSTTAYMQLRSLTSADSAVYYCTVVFYGEPYFPYWGQGTLVTVSA VL: QIVLTQSPAIMSASLGERVTMTCTASSSVSSSYFHWYQQKPGSSPKLWIYRTSNLASGVPGRFSGSGSGTSYSLTISSMEAEDAATYYCHQFHRSPLTFGAGTKLELK: 0.2

Now consider the entry below.
For the binder antibody 73F6 (antibody, V domains shown, Mouse monoclonal from hybridoma; also called 73F6F8; Mouse 73F6) VH: QVQLKESGPGLVAPSQSLSITCTVSGFSLTNYAVHWVRQFPGKGLEWLGVIWSDGSTDYNAPFKSRLSINKDNSKSQVFFKMNSLQTDDTAIYYCARKGGYSGSWFAYWGQGTLVTVSA VL: DIVMTQSQKFLSTSVGVRVSVTCKASQDVGTNVLWYQQKIGQSPKALIYSASYRHSGVPDRFTGSGSGTDFTLIITNVQSEDLAEYFCQQYSRYPLTFGPGTKLELK , what IC90, IL-8 release, NCI/ADR-RES cells, trun-IL-36b is on record?
0.8
